# Papp A→B at 1 μM values compiled below
MEASUREMENT NOTES: Transfer across PBCEC monolayer on Transwell filters (BBB model)
Assay type: in vitro ADME, porcine
TEST PARAMETERS: pig; apical to basolateral, 1 μM apical application (passive transport); read-out: Permeability coefficient
Field: numeric (×10⁻⁶ cm/s). Do not append units.

CC(C)[C@H]1C(=O)O[C@H](C(C)C)C(=O)N(C)[C@@H](C(C)C)C(=O)O[C@H](C(C)C)C(=O)N(C)[C@@H](C(C)C)C(=O)O[C@H](C(C)C)C(=O)N1C: 14.9

Then there is this compound:
Form field Papp A→B at 1 μM, entry CC[C@H](C)[C@H]1C(=O)O[C@H](C(C)C)C(=O)N(C)[C@@H](C(C)C)C(=O)O[C@H](C(C)C)C(=O)N(C)[C@@H](C(C)C)C(=O)O[C@H](C(C)C)C(=O)N1C : 14.6

----------
MEASUREMENT NOTES: CCK-8 viability assay in PBCEC
Type: cell-based, porcine
TEST PARAMETERS: pig, primary porcine brain capillary endothelial cells (PBCEC), 10 μM, read-out: relative viability
ASSAY ENDPOINT: viability at 48 h, 10 µM (%)
Field: numeric (%). Do not append units.

Form field viability at 48 h, 10 µM, entry CC[C@H](C)[C@H]1C(=O)O[C@H](C(C)C)C(=O)N(C)[C@@H](C(C)C)C(=O)O[C@H](C(C)C)C(=O)N(C)[C@@H](C(C)C)C(=O)O[C@H](C(C)C)C(=O)N1C : 64
